GI50 data for CAKI-1 follow.
Respond with the bare value in nM.

# input # returns recorded GI50 (system: CAKI-1) for O=c1cc(-c2ccccc2)oc2cc(OCCCC[P+](C3CCCCC3)(C3CCCCC3)C3CCCCC3)cc(O)c12 [3e]
# output 1570

# input Moving on to O=c1cc(-c2ccccc2)oc2cc(OCCCC[P+](c3ccc(F)cc3)(c3ccc(F)cc3)c3ccc(F)cc3)cc(O)c12 [3d]
# output 1780

# input Moving on to Cc1ccc([P+](CCCCOc2cc(O)c3c(=O)cc(-c4ccccc4)oc3c2)(c2ccc(C)cc2)c2ccc(C)cc2)cc1 [3b]
# output 228

# input Moving on to O=c1cc(-c2ccccc2)oc2cc(OCCCC[P+](c3ccccc3)(c3ccccc3)c3ccccn3)cc(O)c12 [3h]
# output 1540

# input Moving on to COc1c(C)cc([P+](CCCCOc2cc(O)c3c(=O)cc(-c4ccccc4)oc3c2)(c2cc(C)c(OC)c(C)c2)c2cc(C)c(OC)c(C)c2)cc1C [3f]
# output 275

# input Moving on to O=c1cc(-c2ccccc2)oc2cc(OCCCC[P+](c3ccccc3)(c3ccccc3)c3ccccc3)cc(O)c12 [3a]
# output 385

# input Moving on to Cc1ccccc1[P+](CCCCOc1cc(O)c2c(=O)cc(-c3ccccc3)oc2c1)(c1ccccc1C)c1ccccc1C [3g]
# output 309

# input Moving on to COc1ccc([P+](CCCCOc2cc(O)c3c(=O)cc(-c4ccccc4)oc3c2)(c2ccc(OC)cc2)c2ccc(OC)cc2)cc1 [3c]
# output 1030
